# System Under Test: α4β1 integrin (Homo sapiens (Human), UniProt P05556+P13612)
# Sequence (P13612 34-1032): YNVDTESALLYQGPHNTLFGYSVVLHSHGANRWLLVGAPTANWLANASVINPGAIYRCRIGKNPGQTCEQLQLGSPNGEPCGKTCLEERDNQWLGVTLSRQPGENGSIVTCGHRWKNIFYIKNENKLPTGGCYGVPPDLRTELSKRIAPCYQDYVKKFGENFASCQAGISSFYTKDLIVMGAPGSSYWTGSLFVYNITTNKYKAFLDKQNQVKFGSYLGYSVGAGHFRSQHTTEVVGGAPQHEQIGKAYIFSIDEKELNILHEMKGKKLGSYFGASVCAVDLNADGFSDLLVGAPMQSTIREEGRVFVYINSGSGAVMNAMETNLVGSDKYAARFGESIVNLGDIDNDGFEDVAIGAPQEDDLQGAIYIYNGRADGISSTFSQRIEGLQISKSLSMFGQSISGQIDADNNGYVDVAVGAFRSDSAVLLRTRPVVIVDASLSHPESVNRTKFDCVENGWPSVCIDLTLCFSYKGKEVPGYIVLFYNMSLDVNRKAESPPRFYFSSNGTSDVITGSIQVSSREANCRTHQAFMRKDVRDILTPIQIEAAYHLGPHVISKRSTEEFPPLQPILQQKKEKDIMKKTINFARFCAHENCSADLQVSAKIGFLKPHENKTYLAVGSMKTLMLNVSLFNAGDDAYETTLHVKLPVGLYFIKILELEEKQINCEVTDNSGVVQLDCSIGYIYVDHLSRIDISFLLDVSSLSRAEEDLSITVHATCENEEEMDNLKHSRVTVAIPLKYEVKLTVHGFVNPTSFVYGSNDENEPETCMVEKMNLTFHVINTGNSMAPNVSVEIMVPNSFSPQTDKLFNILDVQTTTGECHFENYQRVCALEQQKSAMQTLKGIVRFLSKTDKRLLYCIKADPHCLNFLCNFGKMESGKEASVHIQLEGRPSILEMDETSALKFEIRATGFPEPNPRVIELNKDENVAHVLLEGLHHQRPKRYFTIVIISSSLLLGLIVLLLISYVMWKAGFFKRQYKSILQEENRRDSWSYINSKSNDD
# Sequence (P05556 21-798): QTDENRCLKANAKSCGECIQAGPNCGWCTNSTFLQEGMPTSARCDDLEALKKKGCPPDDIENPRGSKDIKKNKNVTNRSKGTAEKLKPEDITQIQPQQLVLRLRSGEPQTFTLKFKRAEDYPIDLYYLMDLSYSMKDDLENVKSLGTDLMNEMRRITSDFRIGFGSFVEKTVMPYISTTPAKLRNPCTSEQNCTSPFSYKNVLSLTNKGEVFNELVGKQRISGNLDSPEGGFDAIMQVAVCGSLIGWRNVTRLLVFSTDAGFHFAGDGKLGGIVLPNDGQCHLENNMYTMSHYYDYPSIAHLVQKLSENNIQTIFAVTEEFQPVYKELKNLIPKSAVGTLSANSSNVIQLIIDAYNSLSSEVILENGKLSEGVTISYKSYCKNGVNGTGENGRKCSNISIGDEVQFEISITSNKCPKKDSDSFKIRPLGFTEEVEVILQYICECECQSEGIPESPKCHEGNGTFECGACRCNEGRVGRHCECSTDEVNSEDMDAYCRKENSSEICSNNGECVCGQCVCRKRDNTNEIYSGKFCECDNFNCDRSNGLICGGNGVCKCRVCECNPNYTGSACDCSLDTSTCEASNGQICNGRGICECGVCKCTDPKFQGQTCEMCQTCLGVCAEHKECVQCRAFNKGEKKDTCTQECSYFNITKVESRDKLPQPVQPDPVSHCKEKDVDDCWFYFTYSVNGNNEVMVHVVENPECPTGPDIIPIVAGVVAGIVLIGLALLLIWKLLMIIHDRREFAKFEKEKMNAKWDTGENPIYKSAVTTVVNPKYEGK
# Assay Comment: Integrin Adhesion Assay: Protocol 5 (VCAM-coated plate, RPMI-8866 cells with stable LOF mutation of the ITGB7 gene)
# Assay type: cell-based
# Measurement Context: Protocol 5; RPMI-8866 cells with LOF mutation of ITGB7, VCAM; read-out: Mean IC50 α4β1 KO
pIC50: −log10 of the molar value.

Compound	pIC50
O=C(O)[C@H](Cc1cccc2c(-c3ccc(CN4CCC(F)CC4)c4ccncc34)cccc12)NC(=O)C1(C(F)(F)F)CCN(CC(F)(F)F)CC1 [Compound 987]	< 6.00
O=C(O)[C@H](Cc1cccc2c(-c3ncc(CN4CCCCC4)c4ccccc34)cccc12)NC(=O)C1(C(F)(F)F)CCN(CC(F)F)CC1 [Compound 888]	< 6.00
O=C(O)[C@H](Cc1cccc2c(-c3ncc(CN4CCCC(F)(F)CC4)c4ccccc34)cccc12)NC(=O)C1(C(F)(F)F)CCN(CC(F)(F)F)CC1 [Compound 869]	< 6.00
O=C(O)[C@H](Cc1cccc2c(-c3ncc(CN4CCN(C5CC5)CC4)c4ccccc34)cccc12)NC(=O)C1(C(F)(F)F)CCN(CC(F)F)CC1 [Compound 901]	6.00 to 7.00
COc1c2c(cc(C)c1-c1cccc3c(C[C@H](NC(=O)C4(C(F)(F)F)CCN(CC(F)(F)F)CC4)C(=O)O)cccc13)CCN(C)C2 [Compound 735]	< 6.00
COc1cc(C(F)(F)F)c(CN2CCCCC2)cc1-c1cccc2c(C[C@H](NC(=O)C3(C(F)(F)F)CCN(CC(F)(F)F)CC3)C(=O)O)cccc12 [Compound 832]	< 6.00
Cc1cccc(F)c1C(=O)N[C@@H](Cc1cccc2c(-c3c(C(F)(F)F)c4cc(CCN5CCC(F)(F)CC5)ccc4n(C)c3=O)cccc12)C(=O)O [Compound 714]	< 6.00
O=C(O)[C@H](Cc1cccc2c(-c3ncc(CN4CCC[C@@H](F)C4)cc3C3CC3)cccc12)NC(=O)C1(C(F)(F)F)CCN(CC(F)(F)F)CC1 [Compound 949]	< 6.00
COc1ccc(CCN2CCCC(F)C2)c(OC)c1-c1cccc2c(C[C@H](NC(=O)C3(C(F)(F)F)CCN(CC(F)(F)F)CC3)C(=O)O)cccc12 (some centres unmarked) [Compound 826]	6.00 to 7.00
COc1cccc(CN2CCCCC2)c1-c1cccc2c(C[C@H](NC(=O)c3c(F)cccc3-c3ccccc3)C(=O)O)cccc12 [Compound 693]	< 6.00
O=C(O)[C@H](Cc1cccc2c(-c3ncccc3CCN3CCCCC3)cccc12)NC(=O)C1(C(F)(F)F)CCN(CC(F)(F)F)CC1 [Compound 965]	< 6.00
Cn1c(=O)c(-c2cccc3c(C[C@H](NC(=O)C4(C(F)(F)F)CCN(CC(F)F)CC4)C(=O)O)cccc23)c(C(F)(F)F)c2cc(CN3CCC(F)CC3)ccc21 [Compound 834]	7.00 to 8.00
COc1ccc(CCN2CCCCC2)c(C(F)(F)F)c1-c1cccc2c(C[C@H](NC(=O)c3c(C)cccc3F)C(=O)O)cccc12 [Compound 1004]	6.00 to 7.00
CC1CCN(Cc2cnc(-c3cccc4c(C[C@H](NC(=O)C5(C(F)(F)F)CCN(CC(F)F)CC5)C(=O)O)cccc34)c3ccccc23)CCC1(F)F (some centres unmarked) [Compound 926]	< 6.00
COc1ccc2c(c1-c1cccc3c(C[C@H](NC(=O)c4c(C)cccc4F)C(=O)O)cccc13)CCN(C)C2 [Compound 998]	6.00 to 7.00
CC1(C)CCCN(Cc2cnc(-c3cccc4c(C[C@H](NC(=O)C5(C(F)(F)F)CCN(CC(F)(F)F)CC5)C(=O)O)cccc34)c3ccccc23)CC1 [Compound 876]	< 6.00
COc1cccc(CN2CCC(F)CC2)c1-c1cccc2c(C[C@H](NC(=O)c3c(C)cccc3F)C(=O)O)cccc12 [Compound 1024]	< 6.00
CCOCc1cc(CN2CCCCC2)c(-c2cccc3c(C[C@H](NC(=O)C4(C(F)(F)F)CCN(CC(F)(F)F)CC4)C(=O)O)cccc23)c(OC)c1 [Compound 751]	< 6.00
COc1cc(CN2CCC(F)(F)CC2)cnc1-c1cccc2c(C[C@H](NC(=O)C3(C(F)(F)F)CCN(CC(F)F)CC3)C(=O)O)cccc12 [Compound 928]	< 6.00
COc1cc(C(F)(F)F)cc(CN2CCCCC2)c1-c1cccc2c(C[C@H](NC(=O)c3c(C)cccc3F)C(=O)O)cccc12 [Compound 1009]	< 6.00
COc1ccc2c(c1-c1cccc3c(C[C@H](NC(=O)C4(C(F)(F)F)CCN(CC(F)(F)F)CC4)C(=O)O)cccc13)CCN(C)C2 [Compound 737]	6.00 to 7.00
COc1ccc(CN2CCC3(CCCCC3)CC2)c(OC)c1-c1cccc2c(C[C@H](NC(=O)C3(C(F)(F)F)CCN(CC(F)(F)F)CC3)C(=O)O)cccc12 [Compound 813]	< 6.00
O=C(O)[C@H](Cc1cccc2c(-c3ncc(CN4CCOCC4)c4ccccc34)cccc12)NC(=O)C1(C(F)(F)F)CCN(CC(F)(F)F)CC1 [Compound 862]	< 6.00

Provenance of the data: patent US20250313535A1
